Data origin, for the record: patent US5935824A

For each record, write down the corresponding Log S/S-P.
TARGET_UNDER_TEST: carboxypeptidase Y (CPD-Y) immobilized to Acti-Disk (Saccharomyces cerevisiae)
Construct: purchased Sigma
Sequence (P00729 112-532): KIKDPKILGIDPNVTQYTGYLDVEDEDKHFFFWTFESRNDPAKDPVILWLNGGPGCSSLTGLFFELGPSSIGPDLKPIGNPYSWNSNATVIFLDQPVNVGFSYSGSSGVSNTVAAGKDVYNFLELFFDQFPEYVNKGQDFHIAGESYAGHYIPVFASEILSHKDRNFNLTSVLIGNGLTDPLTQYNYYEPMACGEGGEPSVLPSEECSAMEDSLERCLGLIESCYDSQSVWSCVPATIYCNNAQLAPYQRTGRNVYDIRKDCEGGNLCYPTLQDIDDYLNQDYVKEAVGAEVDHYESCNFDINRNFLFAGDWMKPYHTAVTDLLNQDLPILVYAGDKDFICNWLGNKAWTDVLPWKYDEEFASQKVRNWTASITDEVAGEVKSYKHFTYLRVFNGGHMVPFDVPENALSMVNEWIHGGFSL
EXPERIMENT_SUMMARY: Flow digestion of N-CBZ-peptides through CPD-Y Acti Disk, ninhydrin assays
Format: biochemical, yeast
CONDITION_DETAILS: flow rate 2 ml/min; 3.45 seconds; pH 5.75; ~25° C.
Procedure: The reported Km values for CPD-Y have been generated using extremely low enzyme concentration compared to substrate concentration. […] This value is determined by dividing the internal porous volume of the matrix to which the enzyme is immobilized (115 μL/4000 μL, min^-1). […] Standard ninhydrin assay: Hydrolysis of the non-proline containing N-CBZ-dipeptides was determined by assaying the amount of free amino acid released by a colorometric ninhydrin reaction at a pH greater than 5.2. […]
Residues, ends and D or L forms follow the SMILES beside them. *: point of attachment. Cbz = O=C(OCc1ccccc1)*
One number for each entry.

Record excerpt, results attached:
[[record]]
compound = "C[C@H](NC(=O)OCc1ccccc1)C(=O)N1CCC[C@H]1C(=O)O [N-CBZ-Ala-Pro] (Cbz-Ala-Pro-OH)"
target_under_test = "carboxypeptidase Y (CPD-Y) immobilized to Acti-Disk (Saccharomyces cerevisiae)"
assay_value = 0.560

[[record]]
compound = "O=C(NCC(=O)N1CCC[C@H]1C(=O)O)OCc1ccccc1 [N-CBZ-Gly-Pro] (Cbz-Gly-Pro-OH)"
target_under_test = "carboxypeptidase Y (CPD-Y) immobilized to Acti-Disk (Saccharomyces cerevisiae)"
assay_value = 0.004

[[record]]
compound = "O=C(O)CC[C@H](NC(=O)OCc1ccccc1)C(=O)N[C@@H](Cc1ccc(O)cc1)C(=O)O [N-CBZ-Glu-Tyr] (Cbz-Glu-Tyr-OH)"
target_under_test = "carboxypeptidase Y (CPD-Y) immobilized to Acti-Disk (Saccharomyces cerevisiae)"
assay_value = 0.606


Value sought for every listed compound: Log S/S-P.
1. CC(C)C[C@H](NC(=O)[C@H](C)NC(=O)OCc1ccccc1)C(=O)O [N-CBZ-Ala-Leu] (Cbz-Ala-Leu-OH)
2. O=C(O)[C@H](Cc1ccccc1)NC(=O)[C@@H]1CCCN1C(=O)OCc1ccccc1 [N-CBZ-Pro-Phe] (Cbz-Pro-Phe-OH)

1. 0.688
2. 0.037
